Reported growth inhibition values follow for various compounds
# experimentNotes: NCI Yeast Anticancer Drug Screen. Data for the sgs1 mgt1 strain (AID 161);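 note: 0% = growth of cultures given vehicle only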
# conditionNotes: S. cerevisiae sgs1 mgt1 strain, at 50.0 µM, active compounds read high
About 79,000 compounds went through this panel and 15% of them were active in at least one assay; those are over-represented in the sample as a whole. Active and inactive are the calls of the source. Cut-off read from the data, not from the text of the source: active = growth inhibition above about 70%; inactive = the rest.

compound | growth inhibition
ONc1ccccc1 | 11.8% (inactive)

Which growth inhibition is listed for OCCn1c2ccccc2c2ccccc21 ?
18.6% (inactive)

What does the data say about its growth inhibition? Entry: CC1(c2cccc[n+]2Cc2ccc(Cl)c(Cl)c2)OCCO1
0.2% (inactive)

Returns the measured growth inhibition for the input compound. Input: O=C1c2ccccc2C(=O)c2c(Nc3ccc4c5c(cccc35)C(=O)c3ccccc3-4)cccc21
-14.2% (inactive)

Given O=C(O)CCc1ccc2c(c1)CC1(Cc3ccccc3C1)C2 , state its recorded growth inhibition.
61.2% (inactive)

Requested field: growth inhibition. Item: CCOc1c(N=Nc2ccc(Cl)cc2Cl)c(C)nn1C(N)=S
11.1% (inactive)

Requested read-out: growth inhibition. Entry: CC1=NN(C(=O)c2ccccc2O)C(=O)/C1=C/c1ccc(O)cc1
-15.5% (inactive)

Recorded growth inhibition of CCOC(=O)CNc1ccccc1[N+](=O)[O-] , please.
-5.4% (inactive)

Data origin: PubChem BioAssay (NCI)
